Provenance of the data: patent US11168095B2

Each entry below carries its recorded IC50.
Molecular target: GST-hASK1 (Homo sapiens (Human), UniProt Q99683)
Sequence (Q99683 649-946): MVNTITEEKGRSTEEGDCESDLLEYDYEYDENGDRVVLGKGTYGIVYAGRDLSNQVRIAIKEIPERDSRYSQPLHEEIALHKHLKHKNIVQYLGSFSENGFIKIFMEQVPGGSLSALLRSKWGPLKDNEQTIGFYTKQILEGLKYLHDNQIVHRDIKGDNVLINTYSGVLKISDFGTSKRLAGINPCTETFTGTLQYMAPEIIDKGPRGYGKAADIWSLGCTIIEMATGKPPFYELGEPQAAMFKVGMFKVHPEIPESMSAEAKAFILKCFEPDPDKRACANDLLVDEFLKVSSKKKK
Experiment: ASK1 TR-FRET assay
Type: biochemical
Conditions: 5 nM GST-hASK1, 100 μM ATP, 2 μM STK Substrate 3
Experimental: The protein kinase activity of 5 nM GST-hASK1(Life Technologies PV4011) was assayed with 100 μM ATP and 2 μM of HTRF biotinylated STK Substrate 3 (CisBio Kit 62ST3PEJ), at ambient temperature in 25 mM Hepes, pH 7.5, 50 mM NaCl, 10 mM MgCl2, 0.02% Brij-35, 1 mM DTT, and 1% DMSO. After a 10 minute pre-incubation, ASK1 protein kinase activity was initiated by addition of 10 μL of 300 μM ATP.

Known IC50 results, listed for orientation:
{"INPUT SMILES": "Cc1cn(-c2ccc3c(c2)C(=O)Nc2cccc(n2)-c2nncn2[C@H](C)CCCO3)cn1", "IC50": "< 100 nM"}
{"INPUT SMILES": "O=C1Nc2cccc(n2)-c2nncn2CCCCCOc2ccc(N3CCOCC3)cc21", "IC50": "< 100 nM"}
{"INPUT SMILES": "O=C1Nc2cccc(n2)-c2nncn2CCCCOc2ccc(N3CCCC(F)(F)C3)cc21", "IC50": "< 100 nM"}

Let's switch to this compound now.
**Q:** Given the entry C[C@@H]1CCCOc2ccc(-c3cnn(C)c3)cc2C(=O)Nc2cccc(n2)-c2nncn21 , report its measured IC50.
**A:** 100 to 1000 nM
